- Tested target: S1P5 receptors (Homo sapiens, UniProt Q9H228)
- Sequence (Q9H228 whole entry): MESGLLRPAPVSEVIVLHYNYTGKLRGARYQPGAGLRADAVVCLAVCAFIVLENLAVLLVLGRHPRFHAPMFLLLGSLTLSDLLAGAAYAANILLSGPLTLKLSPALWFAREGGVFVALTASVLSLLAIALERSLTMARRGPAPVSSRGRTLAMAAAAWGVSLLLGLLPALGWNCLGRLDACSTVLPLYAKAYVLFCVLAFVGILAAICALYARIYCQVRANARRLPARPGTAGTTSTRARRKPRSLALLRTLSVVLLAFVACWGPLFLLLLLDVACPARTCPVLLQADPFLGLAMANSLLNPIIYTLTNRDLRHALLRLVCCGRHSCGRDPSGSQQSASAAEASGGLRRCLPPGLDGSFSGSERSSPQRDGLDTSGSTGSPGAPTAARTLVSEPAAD
- Test protocol: [35S]-GTPγS binding assay on CHO-S1P5 membranes (S1P5 agonism)
- Experimental parameters: membranes of CHO cells expressing recombinant S1P5; measure of S1P5 agonism
pEC50: −log10 of the molar value.
I'd be grateful if you could share measured pEC50 for these entries.

Which pEC50 value belongs to CC1(O)CN(Cc2ccc(C3CN(c4c(Cl)cccc4Cl)C3)c(F)c2)C1 [Compound 60] ?
6.00 to 7.00

Which pEC50 value belongs to Cc1cc(C2CN(c3c(F)cccc3F)C2)cc(C)c1CN1CC(C)(O)C1 [Compound 42] ?
7.00 to 8.00

Which pEC50 value belongs to CC1(O)CCN(C2CCc3cc(C4CN(c5c(Cl)cccc5Cl)C4)ccc32)CC1 (centres unmarked) [Compound 8] ?
5.00 to 6.00

Which pEC50 value belongs to Cc1c(OCc2c(Cl)cccc2Cl)ccc2c1CCC2NCC(C)(C)O (single isomer, unassigned) [Compound 20a] ?
7.00 to 8.00

Which pEC50 value belongs to Cc1cc2c(cc1CCc1c(Cl)cccc1Cl)CCC2N1CC(C)(O)C1 (single isomer, unassigned) [Compound 23a] ?
7.00 to 8.00

Which pEC50 value belongs to CC1(O)CN(C2CCc3cc(-c4ccc(C5CC5)c(Cl)c4)ccc32)C1 (single isomer, unassigned) [Compound 5b] ?
7.00 to 8.00

Which pEC50 value belongs to CC1(O)CCN(C2CCc3cc(-c4ccc(C5CC5)c(Cl)c4)ccc32)CC1 (centres unmarked) [Compound 6] ?
5.00 to 6.00

Which pEC50 value belongs to Cc1c(C#Cc2cccc(F)c2)ccc2c1CCC2N1CC(C)(O)C1 (single isomer, unassigned) [Compound 17b] ?
7.00 to 8.00
